Entries and their growth
- System: UO-31 renal
- measurement.description: NCI-60 one-dose screen, 48 h (100 = growth as untreated, 0 = no growth, -100 = all killed)
- condition.info: 10 µM unless noted
About 83,000 compounds went through this panel and 20% of them were active in at least one assay; those are over-represented in the sample as a whole.

compound	growth (%)
C[C@@H]1CCC2=C(CCC[C@]2(C)C(=O)O)[C@@]1(C)CCc1ccoc1	87.7
CCC(C)[C@@H]1NC(=O)[C@@H]2CCCN2C(=O)[C@H](Cc2ccccc2)NC(=O)[C@@H]2CCCN2C(=O)[C@H](Cc2ccccc2)NC(=O)[C@@H]2CCCN2C(=O)[C@H](Cc2ccccc2)NC1=O (some centres undefined)	105
Clc1nc(Cl)c2c3c(sc2n1)CCCC3	65.6
CC[C@H](Nc1ncnc(N)c1C(N)=O)c1nc2cccc(NCc3ccc(C(=O)NO)cc3)c2c(=O)n1-c1ccccc1	71.8

* * *

- Test system: DU-145 prostate
- measurement.description: NCI-60 one-dose screen, 48 h
- condition.info: 10 µM unless noted
Compounds without any hit were thinned out: in the full panel of roughly 83,000, 20% have a hit. The source made the active and inactive calls. The calls were made as follows: active = growth percent below 10; inactive = the rest.
Outcomes: active, inactive

> print(dat)
                                   compound  class.label
1  COc1ccc(-c2cc(/C=C3\C(=O)Nc4ccc(Cl)cc43)[nH]n2)cc1     inactive
2             Oc1ccccc1/C=N/Nc1ccc2ccccc2n1     inactive
3  O=C1CC(c2nc3ccccc3[nH]2)CN1C1CCCCC1 (stereo unspecified)     inactive
4           c1ccc2c(Nc3cccc4ccccc34)cccc2c1     inactive
5  O=C1c2cccnc2C(=O)c2c1c(C(=O)OCCN1CCCCC1)c1ccccn21       active
6       Oc1ccc2c(=S)cc(-c3ccc(Br)cc3)oc2c1O     inactive

* * *

- Tested on: A498 renal
- measurement.description: NCI-60 one-dose screen, 48 h
- condition.info: 10 µM unless noted
- Method: Growth inhibition of the A498 human tumor cell line is measured as a screen for anti-cancer activity. Cells are grown in 96 well plates and exposed to the test compound for 48 hours. Compounds are tested at a single concentration, which is 10^-5 M for most compounds. The reported endpoint is percent growth (GI% or GIPRCNT), where numbers from 0 - 100% represent growth inhibition, and numbers from -100% - 0 represent cell death. For example, a value of 40 represents 60% growth inhibition. […]
This is part of a sample that, as a whole, favours compounds with a hit. Of some 83,000 tested, about 20% had one in any assay. Calls of active or inactive are those of the source. The calls were made as follows: active = growth percent below 10; inactive = the rest.
Outcome codes: yes (1) (active), no (0) (inactive)

> print(dat)
                                    compound  class.label
 1  O=C(Nc1cccc2c1C(=O)c1cccc(Nc3cccc4c3C(=O)c3cccc(NC(=O)c5ccccc5)c3C4=O)c1C2=O)c1ccccc1       no (0)
 2  CCOC(=O)c1cnc2cc(Cl)c(F)cc2c1Nc1cccc(NS(C)(=O)=O)c1       no (0)
 3  O=C(CCCCN1CCOCC1)Nc1ccc(Cn2nnc3c2C(=O)c2nnn(Cc4ccc(NC(=O)CCCCN5CCOCC5)cc4)c2C3=O)cc1      yes (1)
 4                              Cc1ccccc1CCO       no (0)
 5  O=C([C@@H](COCc1ccccc1)N1C(=O)[C@@H](N2C(=O)OC[C@@H]2c2ccccc2)[C@H]1/C=C/c1ccccc1)N1CCC(CCN2CCCCC2)CC1       no (0)
 6                 CCCCCn1cnc2c(=S)nc[nH]c21       no (0)
 7  CCN(CC)CC(O)c1cc(-c2ccc(Cl)cc2)nc2c(C)c(Cl)ccc12 (centres undefined)      yes (1)
 8  CCN(CC)C12CCCCC1(C)C(C#N)(C#N)C(C#N)=C(N)O2 (centres undefined)       no (0)
 9  CC(=O)OC1Oc2cc(C)c(C)cc2-c2oc(=O)c(-c3cc4ccc(N(C)C)cc4oc3=O)cc21 (centres undefined)       no (0)
10  C[C@@H]1CC[C@@H]2[C@@H]1[C@H](OC(=O)/C=C/c1ccccc1)[C@]1(C3CCCCC3)C[C@@H](OC(=O)CO)[C@@]2(C)O1      yes (1)
11  COc1ccc(/C=c2/c(=O)[nH]c3nc4sc(C)c(C)c4c(=O)n23)cc1       no (0)
12  O=C(CN1CCN(c2cc3c(cc2F)c(=O)c(C(=O)O)cn3C2CC2)CC1)Nc1nc(-c2ccccc2)cs1       no (0)
13  CC[C@H](Nc1cc(C)nc(N)n1)c1nc2cccc(NCc3ccc(C(=O)NO)cc3)c2c(=O)n1-c1ccccc1      yes (1)
14  O=C1C[C@H](Sc2nc(-c3ccc(F)cc3)cc(C(F)(F)F)n2)[C@H]2CO[C@@H]1O2       no (0)
15  COc1ccc(/C=C/C(=O)c2c(O)c(C)c(O)c3c2OC2=CC(O)=C(C(C)=O)C(=O)[C@]23C)cc1      yes (1)
16          CS(=O)(=O)c1c(Nc2ccccc2)n[nH]c1N       no (0)
17            O=C(/C=C/c1cccc(Br)c1)c1ccccc1       no (0)
18         C#Cc1nc(Nc2cc(C)[nH]n2)c2ccccc2n1      yes (1)
19  O=C(/C=C/c1cc2ccccc2[nH]c1=O)/C=C/c1cc2ccccc2[nH]c1=O       no (0)

* * *

- Test system: A498 renal
- measurement.description: NCI-60 one-dose screen, 48 h (100 = growth as untreated, 0 = no growth, -100 = all killed)
- condition.info: 10 µM unless noted
The panel holds about 83,000 compounds, 20% with a hit somewhere; the sample as a whole holds those more often.
measurement.name: growth (%)

> print(dat)
                                    compound  measurement.name    val
 1            CCCCCCCCCCCCCCCC[N+]1(CC)CCCC1            growth  -9.64
 2  CC(C)(C)n1cc(-c2ccnc(NCCCNS(=O)(=O)c3cccc4ccccc34)c2)c(-c2cccc(O)c2)n1            growth     48
 3             CCOC(=O)CC(=O)c1c(C)cc(C)cc1C            growth   96.8
 4    Cc1cc(Nc2nc(N3CCNCC3)nc3ccccc23)n[nH]1            growth   45.3
 5  O=C1c2cccnc2C(=O)c2c1c(C(=O)OCCN1CCCCC1)c1ccccn21            growth   47.3
 6  O=C(Nc1nc(-c2ccccc2)cc(-c2ccc(Cl)cc2)n1)c1ccncc1            growth   71.5
 7  COc1ccc2c(c1)C(=O)/C(=C/c1cccc(OCC(=O)Nc3nc4c(s3)CCCC4)c1)O2            growth     92
 8  CC/C(Cc1ccccc1)=C(/c1ccc(O)cc1)c1ccc(OCCN2CCCC2)cc1            growth   54.9
 9  COc1ccc(S(=O)(=O)NCCNc2nccc(-c3c(-c4cccc(N)c4)nc4sccn34)n2)cc1            growth   91.6
10      Cc1cc2cc3cc(C)c(N(C)C)cc3nc2cc1N(C)C            growth   52.8
11  O=C(Nc1ccc(Oc2ccc(F)cc2)c(Cl)c1)c1cccnc1            growth   70.8
12  O=C1NC(=O)C(CC(=O)n2c(-c3ccccc3)nc3ccccc32)C(=O)N1            growth   63.6
13  COCCOC(=O)C1=C(C)NC(=S)NC1c1ccc2c(c1)OCO2 (stereo not drawn)            growth   96.1
14  CCCCCCCCCCCCCCCCCCNC(=O)[C@H]1CSC(c2ccc(OC)c(F)c2)N1 (stereo partly drawn)            growth   64.9
15          O=C1c2ccccc2-c2nccc3cc(Cl)nc1c23            growth   90.2
16  COc1ccc(-c2nn(-c3ccccc3)cc2/C=C/C(=O)OCc2cn(-c3ccc(F)c(Cl)c3)nn2)cc1            growth   77.3
17  COc1ccc(C2Nc3ccccc3-n3cccc32)cc1 (stereo not drawn)            growth   93.2
18  O=C(Nc1ccc(CN2CCOCC2)cc1)c1[nH]ncc1Nc1ncnc2sccc12            growth  -36.8

* * *

- Tested on: M14 melanoma
- measurement.description: NCI-60 one-dose screen, 48 h (100 = growth as untreated, 0 = no growth, -100 = all killed)
- condition.info: 10 µM unless noted
This is part of a sample that, as a whole, favours compounds with a hit. Of some 83,000 tested, about 20% had one in any assay.
Class boundaries, taken from values of growth, are as follows: lowest (below 40%), middle (40% to below 80%), highest (80% or more)

compound	class.label
O=[N+]([O-])c1cccc(C2CC(c3ccccc3)=Nc3ccccc3S2)c1 (stereo not given)	highest
O=C(NCc1cccc(C(F)(F)F)c1)[C@H](CCC(=O)N1CCN(C2CCCCC2)CC1)N1C(=O)[C@@H](N2C(=O)OC[C@@H]2c2ccccc2)[C@H]1/C(Cl)=C/c1ccccc1	lowest
CCCCCCCCCCCCCCCCCCSC1=CC(=O)C(OC)=C(OC)C1=O	middle
CCCCCCCCCC(=O)Oc1ccc(/C(=C(/C)c2ccccc2)c2ccc(OCCN3CCCC3)cc2)cc1	lowest
C=C1CC[C@@H]2[C@](C)(COC(C)=O)[C@H](OC(C)=O)CC[C@@]2(C)[C@@H]1CC(NCc1ccc(F)cc1)C1=CCOC1=O (stereo not given in full)	lowest
COc1cc(NC(N)=NCC(C)(C)COc2ccc(C(F)(F)F)cc2)cnc1C#N	middle
CC(=O)/C(=C/c1cccc(Cl)c1)C(=O)c1ccccc1	middle
N#Cc1ccc(NC(=O)Nc2ccc(Cc3ccc(NC(=O)Nc4ccc(C#N)cc4)cc3)cc2)cc1	lowest
Oc1ccc2c(=S)cc(-c3ccc(Br)cc3)oc2c1O	lowest
CC1CN(C(C)C)C(=S)N(c2ccccc2)C1=O (stereo not given)	highest
COc1ccc2c(c1)C(=O)/C(=C/c1cccc(OCC(=O)Nc3nc4c(s3)CCCC4)c1)O2	lowest
C=C1CC[C@@H]2[C@](C)(COC(C)=O)[C@H](OC(C)=O)CC[C@@]2(C)[C@@H]1CC(Nc1ccc(S(=O)(=O)Nc2ccc(Cl)nn2)cc1)C1=CCOC1=O (stereo not given in full)	lowest
COc1ccc(/C=C2\N=C3SC=C(N)N3C2=O)cc1	lowest
COc1ccc(C(=O)/C=C/c2cc3ccccc3[nH]c2=O)cc1	middle
Nc1ccc2c(c1)C(=O)NC2=O	highest
COc1nc2c(cc1S(=O)(=O)c1ccccc1)CCc1c-2cnn1Cc1ccccc1	middle
CC(C)C1=C[C@@]23CC[C@@H]4[C@](C)(CCC[C@@]4(C)C(=O)OCC#CCN4CCCC4)[C@H]2C[C@@H]1[C@H]1C(=O)OC(=O)[C@H]13	highest
CCOC(=O)c1cnc2cc(Cl)c(F)cc2c1Nc1cccc(NS(C)(=O)=O)c1	highest
CCCCOc1ccc(NC(=O)n2nc(NC(C)=O)c3cc(NC(C)=O)ccc32)cc1	highest
CCN(CC)CC(C)(C)C(=O)/C=C/c1ccccc1	lowest
